Assay summary: Dissociation constant, pKa of the compound
Type: physicochemical
Assay endpoint: pKa
Answer with a number only.

>>> quantitative_result("Cc1noc(C)c1CN1CCC(CCOc2ccc(-c3cc4c(ncn4C)c(C#N)n3)cc2C(F)(F)F)CC1")
7.9
>>> quantitative_result("CN(C)C(=O)CN1CCC(CCOc2ccc(-c3cc4c(ncn4C)c(C#N)n3)cc2C(F)(F)F)CC1")
7.5
>>> quantitative_result("Cc1noc(CN2CCC(CCOc3ccc(-c4cc5c(ncn5C)c(C#N)n4)cc3C(F)(F)F)CC2)n1")
5.3

Reported pKa, compound `Cc1nnc(CN2CCC(CCOc3ccc(-c4cc5c(ncn5C)c(C#N)n4)cc3C(F)(F)F)CC2)o1` : ____
5.6

Reported pKa, compound `Cn1cnc2c(C#N)nc(-c3ccc(OCCC4CCN(Cc5ncco5)CC4)c(C(F)(F)F)c3)cc21` : ____
6.3
